Taken from paper PMC8809517.

- Tested on: TRX-9S-S2 (synthetic construct (Selaginella-type S motif consensus))
- Protocol Description: HRP pulldown
- Run Conditions: HRP: 50 mM Tris pH 8, 150 mM NaCl, 1 mM bME, 50 ug/ml BSA, 3 ug/ml yeast RNA, 0.5% heparin, 2 nM RNA; ITC (25 C) and FP: Tris pH 8, 200 mM KCl, 5% glycerol …
Value Kind: Kd (nM)
Write the answer as a number in nM, unit excluded.

For the sequence AUUACACGUGA [Cy5-rpoA] , report Kd.
6.4
